# assay.procedure: compounds altering Cy5-DNA-NS3h complex signal – biochemical, LOPAC1280, artefact control for HCV NS3 helicase inhibitor project (AID 687037)
# measurement.conditions: Cy5-DNA-NS3h complex fluorescence interference counterscreen
parameter: fluorescence ratio (interference)

molecule: Cc1cc2c(cc1Cl)N(C(=O)Nc1ccnc3ccccc13)CC2
result: 0.9
--
molecule: O=Nc1ccc2oc(=O)ccc2c1
result: 1
--
molecule: CCCCC/C=C\CC(O)/C=C/c1cccc(CC(O)CCCCO)n1 (centres undefined)
result: 0.9
--
molecule: c1ccc2c(c1)CC(N1CCN(c3cccc4c3OCCO4)CC1)C2
result: 1
--
molecule: N[C@@H](Cc1cnc[nH]1)C(=O)O
result: 1.1
--
molecule: CN1CCCC1CCOC(C)(c1ccccc1)c1ccc(Cl)cc1 (centres undefined)
result: 1
--
molecule: Nc1ncnc2c1nc(Br)n2C1OC2COP(=O)(O)O[C@@H]2C1O (some centres undefined)
result: 0.9
--
molecule: NC1CCN(O)C1=O (centres undefined)
result: 1
--
molecule: O=C(O)[C@H]1NCCC[C@H]1C(=O)O
result: 1
--
molecule: N=C(N)SCCc1ccc(CCSC(=N)N)cc1
result: 0.9
--
molecule: CNCCc1cnc(CCC(c2ccccc2)c2ccccc2)[nH]1
result: 1
--
molecule: COc1cc2nc(N3CCN(C(=O)OCc4ccccc4)C(C(=O)NC(C)(C)C)C3)nc(N)c2cc1OC (centres undefined)
result: 1
--
molecule: CNc1ncnc2c1ncn2[C@@H]1O[C@H](CO)[C@H](O)C1O (some centres undefined)
result: 1
--
molecule: N[C@H](CO)C(=O)O
result: 1
--
molecule: NC(=O)C1=CN(C2OC(COP(=O)(O)OP(=O)(O)OC[C@H]3O[C@@H](n4cnc5c(N)ncnc54)C(OP(=O)(O)O)[C@H]3O)C(O)C2O)C=CC1 (some centres undefined)
result: 1
--
molecule: CC[C@@H]1Cc2cc(O)ccc2C2=C1c1ccc(O)cc1C[C@H]2CC
result: 1
--
molecule: O=c1[nH]c2cc(Cl)ccc2c(O)c1-c1ccc(Oc2ccccc2)cc1
result: 1
--
molecule: NC[C@@H]1O[C@H](c2ccccc2)Cc2c1ccc(O)c2O
result: 0.9
--
molecule: O=C(O)/C=C/c1cnc[nH]1
result: 1
--
molecule: C=C1C(=O)O[C@@H]2[C@H]3O[C@]3(C)CCC=C(C)CC[C@@H]12
result: 1
--
molecule: CCCCCC(O)c1cccc(OCc2ccc3ccccc3n2)c1 (centres undefined)
result: 0.9
--
molecule: N#C/C(=C\c1ccc(O)c(O)c1)C(=O)c1ccc(O)c(O)c1
result: 1
--
molecule: C[C@@H](NCCc1ccc(O)cc1)[C@@H](O)c1ccc(O)cc1
result: 0.9
--
molecule: Nc1ccc(CCNc2ncnc3c2ncn3C2OC(CO)C(O)C2O)cc1 (centres undefined)
result: 1

---

# cell count values compiled below
# assay.procedure: viability loss with induced miR-34 in A549 – imaging, A549 dox-inducible miR-34, nuclei and caspase counts, primary screen (AID 1347080); further: test concentration not given here
# measurement.conditions: A549 miR-34 inducible, Hoechst nuclei count, 48 h; measured here: total cells without miR-34 induction
parameter: cell count

compound: COc1cccc2c(=O)n(C(C)Cn3cccn3)cnc12 (configuration not stated)
parameter: cell count
result: 9650
--
compound: CC1(C)OC2C[C@H]3[C@@H]4CCC5=CC(=O)CC[C@]5(C)[C@]4(F)C(O)C[C@]3(C)[C@@]2(C(=O)CCl)O1 (some centres not stated)
parameter: cell count
result: 5220
--
compound: CCC1OC(=O)CC(O)C(C)C(O[C@H]2OC(C)C(O[C@H]3C[C@@](C)(O)C(O)C(C)O3)C(N(C)C)C2O)C(CC=O)CC(C)C(=O)C=CC(C)=CC1COC1OC(C)C(O)C(OC)C1OC (some centres not stated)
parameter: cell count
result: 9740
--
compound: CC1OC(OCC2OC(Oc3c(-c4ccc(OCCO)c(OCCO)c4)oc4cc(OCCO)cc(O)c4c3=O)C(O)C(O)C2O)C(O)C(O)C1O (configuration not stated)
parameter: cell count
result: 7830
--
compound: COc1cccc2c(=O)n(Cc3ccc4ncccc4c3)cnc12
parameter: cell count
result: 9140
--
compound: CC[C@H]1OC(=O)[C@H](C)[C@@H](O[C@H]2C[C@@](C)(OC)[C@@H](O)[C@H](C)O2)[C@H](C)[C@@H](O[C@@H]2O[C@H](C)C[C@H](N(C)C)[C@H]2O)C(C)(O)C[C@@H](C)CN(C)[C@H](C)[C@@H](O)[C@]1(C)O (some centres not stated)
parameter: cell count
result: 10900
--
compound: O=C(Cn1nnc(-c2ccccc2)n1)Nc1ccnn1Cc1ccccc1
parameter: cell count
result: 9060
